EXPERIMENTAL_DETAILS: cell viability in Huh7 cells, primary screen, cytotoxicity control for HCV replication inhibitor project, CellTiter-Glo luminescence, basal, 48 h (AID 1143);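 note: Huh7 hepatoma cells carrying a hepatitis C replication reporter with no stimulus; test concentration not given here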
TEST_SETTINGS: Huh7 HCV replicon, higher = more signal, called active from +8 up or from −8 down
Quick rule: z-score of at least -2 means class 1, below that means class 0.

| COMPOUND | ANSWER_LABEL |
| --- | --- |
| CCOC(=O)C1=CC[C@@H](c2ccccc2Cl)N(S(=O)(=O)c2ccc(C)cc2)C1 | class 0 |
| C=CCNC(=O)[C@@H]1[C@H]2C(=O)O[C@H](c3ccccc3)[C@H](c3ccccc3)N2[C@H](c2ccc(O)cc2)[C@@]12C(=O)N(C(=O)OCCOC)c1ccccc12 | class 0 |
| [N-]=[N+]=Nc1ccccc1C[C@]1(C(=O)NCCN2CCOCC2)N=C(c2ccc(OCCCO)cc2)O[C@H]1c1ccccc1 | class 0 |
| CC1CC/C=C\[C@H]2OC34C=CCN(Cc5ccccc5)C(=O)[C@H]3N(CCCCCO)C(=O)[C@@H]4C2C(=O)O1 (stereo not given in full) | class 1 |
| COc1ccc(CCNC(=O)[C@@H]2c3ccccc3C(=O)N(Cc3ccc(OC(F)(F)F)cc3)[C@H]2c2ccc(CO)cc2)cc1 | class 0 |
| CC(C)N1CC=CC23O[C@@H]4C=CCOC(=O)[C@@H]4[C@H]2C(=O)N(CCO)[C@@H]3C1=O (stereo not given in full) | class 1 |
| COC(=O)c1ccc(C23CC2(C(NP(=O)(c2ccccc2)c2ccccc2)c2ccccc2)C3)cc1 (stereo not given) | class 0 |
| COc1ccccc1CN1C(=O)c2ccccc2[C@@H](C(=O)NCCN2CCOCC2)[C@@H]1c1ccc(CO)cc1 | class 1 |
| COc1ccc(C#Cc2ccc3c(c2)[C@]2(C(=O)N3)[C@H](C(=O)NC[C@H](O)c3ccccc3)[C@H]3C(=O)O[C@H](c4ccccc4)[C@H](c4ccccc4)N3[C@@H]2c2ccccc2OCCO)cc1 | class 0 |
| COC(=O)C1=CC(CCCO)=CC(C2CC2)N(Cc2sc3ccccc3c2Cl)C=C1C(=O)OC (stereo not given) | class 0 |

Task item: Tell me whether z-score is at least -2 here: CCC(CC)C(O)C1C=CC2C(=O)N(c3ccccc3)C(=O)C2N1Nc1ccc(C#N)cc1 (stereo not given)
Reply: class 1

Task item: Cool, now `CCOC(=O)[C@H]1C/C=C/C[C@H](C(=O)OCC)C(=O)O[C@H]2[C@@H](OC)O[C@H](CO)[C@@H](OC(=O)Nc3ccc4c(c3)OCO4)[C@@H]2OC1=O`
Reply: class 0

Task item: Cool, now `CC(C)C[C@@H]1NC(=O)[C@H]2C[C@@H](C(=O)NCCCCCNC(=O)CS)[C@@H](c3cccc(OCCO)c3)N2C1=O`
Reply: class 1

Task item: Cool, now `[N-]=[N+]=NCc1ccccc1C[C@@]1(C(=O)N2CCOCC2)N=C(c2ccc(OCCCO)cc2)O[C@@H]1c1ccccc1CN=[N+]=[N-]`
Reply: class 0

Task item: Cool, now `O=C(CCN1CCOCC1)c1cccc(O)c1`
Reply: class 0

====

Documented z-score across a set of compounds
EXPERIMENTAL_DETAILS: MM1S cell viability effects, profiling panel, calcein-AM fluorescence, 48 h, basal (AID 1165);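 note: viability of MM1S multiple myeloma cells under basal unstimulated conditions; test concentration not given here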
TEST_SETTINGS: higher = more signal
// no unit string in output, number only

Recorded results for 3 compounds are shown here.
| COMPOUND | z-score |
| --- | --- |
| Cc1ccc(S[C@]2(C(=O)NCC(C)C)CC(=O)N(Cc3ccccc3)[C@@H]2c2ccc(CO)cc2I)cc1 | -2.1 |
| CCCCC=C[C@@H](NC(=O)c1cccs1)c1ccccc1 | -1.66 |
| COc1cccc(C(=O)O[C@H]2CC[C@]3(C)C4=C(CCC3C2(C)C)[C@]2(C)CC[C@H]([C@H](C)CCCC(C)C)[C@@]2(C)CC4)c1 (stereo partly drawn) | -0.56 |

Task item: Item under review: O=C1OCCC=C[C@H]2OC34C=CCN(Cc5ccccc5)C(=O)[C@H]3N(CCCO)C(=O)[C@@H]4C12 (stereo partly drawn) . Reported z-score?
Reply: 0.0832

Task item: Cool, now `COCCCNC(=O)[C@@]1(c2ccc([N+](=O)[O-])cc2)CC(=O)N(CC23CC4CC(CC(C4)C2)C3)[C@@H]1c1ccc(CO)cc1`
Reply: -1.93

Task item: Cool, now `NCCCCCCNC(=O)[C@H]1C[C@H]2C(=O)NCC(=O)N2[C@H]1c1cccc(OCCO)c1`
Reply: -0.0318

Task item: Cool, now `Cc1ccc([C@H]2C(C(=O)O)=C[C@@H](C)N2S(=O)(=O)c2ccc(C)cc2)cc1`
Reply: -1.35

Task item: Cool, now CCOC(=O)[C@H]1C[C@H]2O[C@@]23C[C@H]1C(=O)N1CCCC1[C@@H]3O[Si](C)(C)C(C)(C)C (stereo partly drawn)
Reply: -0.337
